Target: FePYR1-ABA-AtHAB1 (Festuca elata, UniProt A0A2D1UXN2)
Construct: H6-SUMO-FePYR1 and biotin-MBP-AtHAB1 (172-511), E. coli; tags kept for AlphaScreen; with Protein phosphatase 2C 16 (HAB1, Arabidopsis thaliana)
Sequence (A0A2D1UXN2 1-212): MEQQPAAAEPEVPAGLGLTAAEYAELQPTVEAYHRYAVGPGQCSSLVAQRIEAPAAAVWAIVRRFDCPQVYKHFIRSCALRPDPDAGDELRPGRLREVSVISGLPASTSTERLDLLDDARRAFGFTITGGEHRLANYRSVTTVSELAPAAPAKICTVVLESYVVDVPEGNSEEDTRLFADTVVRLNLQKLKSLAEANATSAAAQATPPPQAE
Sequence (Q9CAJ0 172-511 partner): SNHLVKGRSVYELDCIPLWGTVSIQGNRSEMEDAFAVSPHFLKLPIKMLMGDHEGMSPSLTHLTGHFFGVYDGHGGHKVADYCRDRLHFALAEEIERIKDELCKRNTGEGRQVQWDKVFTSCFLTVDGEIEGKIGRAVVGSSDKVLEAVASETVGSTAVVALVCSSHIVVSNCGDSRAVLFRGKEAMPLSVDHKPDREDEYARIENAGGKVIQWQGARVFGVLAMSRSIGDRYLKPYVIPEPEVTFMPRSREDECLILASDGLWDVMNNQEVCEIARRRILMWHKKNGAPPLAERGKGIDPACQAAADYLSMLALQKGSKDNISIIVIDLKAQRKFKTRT
Assay: AlphaScreen, ABA-dependent receptor-PP2C interaction
Description: AlphaScreen, ABA-dependent receptor-PP2C interaction on FePYR1-ABA-AtHAB1 | EC50 values of FePYL1, FePYR1, ZjPYL2 in interacting with AtHAB1
pEC50: −log10 of the molar value.
measurementName: pEC50

compound="CC1=CC(=O)CC(C)(C)C1(O)/C=C/C(C)=C\\C(=O)O (stereo in doubt) [(+)-ABA]" measurement=5.64
